B1: VAMP4 (parent)
chain: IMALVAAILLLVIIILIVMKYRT

Variants of: B1
TEST METHOD NOTES: protein stability index of a GFP-peptide fusion (GPS, HEK-293T) (PSI 1-6); higher = more stable;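 further: lentivirally expressed fusions sorted by FACS into six bins by GFP to DsRed ratio, PSI derived from sequencing read proportions per bin multiplied by bin number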
TEST PARAMETERS: c terminus: native
ENDPOINT: protein stability index
Please reply with the value in numeric form only.

Request: Any idea what its protein stability index is? The variant is L9G
Response: 3.48

Request: Can you handle V12H next?
Response: 2.3

Request: Can you handle M19E next?
Response: 3.07

Request: Can you handle M19I next?
Response: 3.64

Request: Can you handle I17R next?
Response: 2.33

Request: Can you handle I13D next?
Response: 1.4

Request: Can you handle V18T next?
Response: 2.87

Request: Can you handle L10D next?
Response: 3.06

Request: Can you handle Y21W next?
Response: 3.48

Request: Can you handle L16K next?
Response: 2.73

Request: Can you handle K20Y next?
Response: 3.38

Request: Can you handle L9D next?
Response: 2.68

Request: Can you handle V18N next?
Response: 2.33

Request: Can you handle L4P next?
Response: 2.83

Request: Can you handle M2G next?
Response: 2.98

Request: Can you handle A3T next?
Response: 3.17

Request: Can you handle V12A next?
Response: 3.62

Request: Can you handle A7P next?
Response: 2.75

Request: Can you handle V5A next?
Response: 3.36

Request: Can you handle V5K next?
Response: 2.1

Request: Can you handle V18P next?
Response: 2.72

Request: Can you handle I8L next?
Response: 3.28
